TEST_TARGET: IDH2 R172K (Homo sapiens, UniProt P48735, R172K)
Sequence (P48735 40-452 R172K): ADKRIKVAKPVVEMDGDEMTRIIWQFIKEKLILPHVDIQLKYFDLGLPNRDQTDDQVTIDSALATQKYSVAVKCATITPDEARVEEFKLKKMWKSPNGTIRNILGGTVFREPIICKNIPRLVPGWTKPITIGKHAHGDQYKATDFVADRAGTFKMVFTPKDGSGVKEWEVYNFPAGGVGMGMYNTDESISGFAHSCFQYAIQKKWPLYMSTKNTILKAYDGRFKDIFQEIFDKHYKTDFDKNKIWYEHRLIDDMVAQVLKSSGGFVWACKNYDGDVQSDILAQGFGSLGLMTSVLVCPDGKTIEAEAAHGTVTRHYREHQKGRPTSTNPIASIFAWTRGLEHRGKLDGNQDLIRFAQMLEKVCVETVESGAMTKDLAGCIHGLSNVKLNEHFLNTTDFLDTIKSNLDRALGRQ
PROTOCOL_DETAILS: IDH2 R172K enzymatic assay (NADPH cofactor depletion, diaphorase/resazurin readout)
EXPERIMENTAL_PARAMETERS: read-out: Enz R172K
Measured IC50, listed per entry.

Sample records with IC50:
molecule=CC(C)(O)CNc1nc(Nc2ccc(F)nc2)nc(-c2ccccc2F)n1 recorded_endpoint=IC50 result="100 to 1000 nM"
molecule=c1ccc(-c2nc(Nc3ccncc3)nc(NC3CCC3)n2)cc1 recorded_endpoint=IC50 result="100 to 1000 nM"
molecule=CC#Cc1cccc(-c2nc(Nc3cc(F)cc(F)c3)nc(NC(C)C)n2)n1 recorded_endpoint=IC50 result="< 100 nM"

Now take the following molecule into account.
## Task Could you tell me which IC50 is on file for CC(C)Nc1nc(Nc2cccc(S(=O)(=O)NCC(F)(F)F)c2)nc(-c2cccc(Cl)n2)n1 ?
## Result < 100 nM
